Form field: TGI (one value per entry).
# Test system: MDA-MB-468 breast
# method-summary: NCI tumour cell line growth inhibition, 48 h
Please reply with the bare figure in µM and do not write the unit itself.

O=C1N[C@@H]2[C@@H](O)[C@@H](O)[C@H](O)C[C@H]2c2cc3c(c(O)c21)OCCO3 0.455
COc1ccccc1Nc1cc(O)c2c(=O)cc(-c3ccccc3)oc2c1 6.42
Cc1cccc2sc(/N=C(\N)C(Br)Br)nc12 4.58
CCCCCCCCCCCCCCCC1=NCC[N+]1(CCO)CCO 7.03
COc1ccc(C2(Cl)c3ccccc3N(c3ccccc3)c3ccccc32)cc1 2.1
Cc1onc(-c2ccccc2)c1C(=O)N/N=C/c1cc(Cl)cc(Cl)c1O 42.9

// returns reported TGI for input `CCOC(=O)c1cc(C(=O)c2ccc(OC)cc2)n2ccc(/C=C/c3cc[n+](CC(=O)c4ccc(OC)cc4)cc3)cc12`
3.63

----------
# Tested on: MDA-MB-468 breast
# method-summary: NCI tumour cell line growth inhibition, 48 h
measurement-kind: TGI

Here's what some known entries look like.
COc1ccc(C(=O)C(CN(C)C)CN(C)C)cc1 4.31 µM
Cc1c(C)n(CCCN2CCN(C)CC2)c2ccc(Oc3cccc(C(=O)N4CCN(CCc5ccc(F)cc5)CC4)c3)cc12 2.47 µM
CC(C)C[C@H](NC(=O)CNC(=O)c1cc(Cl)ccc1Cl)B(O)O 0.0217 µM

Moving on to the next compound.
Item: `CCOC(=O)c1c(NC(=O)c2ccc(C(F)(F)F)cc2)sc2c(CN3CCN(C)CC3)c(O)ccc12` Test system: MDA-MB-468 breast Read-out: TGI Value: ?
3.93 µM

----------
# Test system: MDA-MB-468 breast
# method-summary: NCI tumour cell line growth inhibition, 48 h; in the data active = GI50 below about 0.43 µM; inactive = the rest
Your answer must be one of the following: T = active, F = inactive

The following compounds have reported results that may help.
compound	discrete-label
CCc1ccc(Oc2c(-c3ccc(OCc4ccc(Cl)cc4)cc3O)n[nH]c2C(F)(F)F)cc1	F
CC(=O)O[C@@H]1C2CCC3C(CC[C@@]4(C)C3CC[C@@H]4C(C)N(C)C)[C@@]2(C)CC[C@@H]1NC(=O)C=C(C)C (some centres undefined)	F
COc1ccc(C(=O)C(CN(C)C)CN(C)C)cc1	F

Then there is this compound:
Recorded test outcome, item `Fc1ccc(-c2cc3nc(C(Cl)Cl)nc(-c4ccco4)n3n2)cc1`
T

----------
In this section, each of the compounds is paired with its reported TGI.
# Tested on: MDA-MB-468 breast
# method-summary: NCI tumour cell line growth inhibition, 48 h

Worked examples, 2 compounds total:
CNC(=O)c1ccc(N2C(=S)N(c3cnc(C#N)c(C(F)(F)F)c3)C(=O)C23CCC3)cc1F > 100 µM
Fc1ccc(-c2c(-c3ccncc3)nc3n2CCS3)cc1 > 25 µM

Okay, next one:
For the compound `CNC(=O)c1c(C)oc2cc(Oc3ncnc4cc(OC)c(OC)cc34)ccc12` , what TGI is on record?
> 100 µM

----------
# Test system: MDA-MB-468 breast
# method-summary: NCI tumour cell line growth inhibition, 48 h
measurement-kind: TGI (µM)
State just the number; it will be interpreted in µM.

CCOC(=O)C1=CCCC[C@H]1S(=O)(=O)Nc1ccc(F)cc1Cl 42.4
Fc1ccc(-c2cc3nc(C(Cl)Cl)nc(-c4ccco4)n3n2)cc1 0.793
Cc1ccc(O)c(NC(=O)c2cccc(Nc3ccnc(C(F)(F)F)c3)c2)c1 54.9
O=c1oc2ccc(I)cc2c(=O)n1-c1ccc(Br)cc1F 4.88

// switching to the query compound
So what TGI did `O=C(N/N=C/c1ccc([N+](=O)[O-])o1)c1[nH]c2ccc(Br)cc2c1-c1ccccc1` get with MDA-MB-468 breast?
1.7

All values here come from PubChem BioAssay (NCI).
